Catalogue of molecules with associated IC50
System: Plasmodium falciparum
Assay: Antiplasmodial activity against chloroquine-sensitive Plasmodium falciparum MRC2 infected in human erythrocytes after 24 hrs by Giemsa staining
Type: functional, organism-based
Details: MRC2, 24 h
outcome-measure: IC50 (µM)

[[record]]
query_smiles = "CC1=CC(=O)C[C@H]2[C@](C)(CCC3=CCOC3=O)[C@H](COS(C)(=O)=O)CC[C@]12C"
measured_target = "Plasmodium falciparum"
outcome_measure = "IC50"
value_observed = 69.9

[[record]]
query_smiles = "CC1=CC(=O)C[C@H]2[C@](C)(CCC3=CCOC3=O)[C@H](COC(=O)OCc3ccccc3)CC[C@]12C"
measured_target = "Plasmodium falciparum"
outcome_measure = "IC50"
value_observed = 42.2

[[record]]
query_smiles = "COC[C@@H]1CC[C@]2(C)C(C)=CC(=O)C[C@H]2[C@]1(C)CCC1=CCOC1=O"
measured_target = "Plasmodium falciparum"
outcome_measure = "IC50"
value_observed = 94.4

[[record]]
query_smiles = "COc1ccc(COC(=O)OC[C@@H]2CC[C@]3(C)C(C)=CC(=O)C[C@H]3[C@]2(C)CCC2=CCOC2=O)cc1"
measured_target = "Plasmodium falciparum"
outcome_measure = "IC50"
value_observed = 37.6

[[record]]
query_smiles = "CC1=CC(=O)C[C@H]2[C@](C)(CCC3=CCOC3=O)[C@H](COS(=O)(=O)c3ccc(C)cc3)CC[C@]12C"
measured_target = "Plasmodium falciparum"
outcome_measure = "IC50"
value_observed = 26.1

[[record]]
query_smiles = "CC1=CC(=O)C[C@H]2[C@](C)(CCC3=CCOC3=O)[C@H](COCc3ccc(F)cc3)CC[C@]12C"
measured_target = "Plasmodium falciparum"
outcome_measure = "IC50"
value_observed = 8.3

[[record]]
query_smiles = "CC1=CC(=O)C[C@H]2[C@](C)(CCC3=CCOC3=O)[C@H](COCc3ccc(C(F)(F)F)cc3)CC[C@]12C"
measured_target = "Plasmodium falciparum"
outcome_measure = "IC50"
value_observed = 4.8

[[record]]
query_smiles = "CC1=CC(=O)C[C@H]2[C@](C)(CCC3=CCOC3=O)[C@H](COC(=O)C(C)(C)C)CC[C@]12C"
measured_target = "Plasmodium falciparum"
outcome_measure = "IC50"
value_observed = 78.5

[[record]]
query_smiles = "CC1=CC(=O)C[C@H]2[C@](C)(CCC3=CCOC3=O)[C@H](COCc3ccc(Cl)cc3)CC[C@]12C"
measured_target = "Plasmodium falciparum"
outcome_measure = "IC50"
value_observed = 14

